test system: nucleoside oxidase; test: Substrate specificity: relative enzymatic activity on various substrates; type: biochemical, Pseudomonas putida B-0781; conditions: substrate each 1 mM concentration
OUTCOME_MEASURE: Relative activity (%)

>  <MOLECULE>
Nc1ccn([C@@H]2O[C@H](CO)[C@@H](O)[C@@H]2O)c(=O)n1 [arabinosylcytosine, 1-β-D-arabinofuranosylcytosine, reference compound]

>  <OUTCOME_MEASURE>
Relative activity

>  <ASSAY_RESULT>
8.1

$$$$
>  <MOLECULE>
O=c1[nH]cnc2nc[nH]c12 [hypoxanthine]

>  <OUTCOME_MEASURE>
Relative activity

>  <ASSAY_RESULT>
0

$$$$

(A) Nc1ncnc2c1ncn2[C@@H]1O[C@H](COP(=O)(O)O)[C@@H](O)[C@H]1O [5'-AMP]
(B) Nc1ccn([C@@H]2O[C@H](CO)[C@@H](O)[C@H]2O)c(=O)n1 [cytidine]
(C) Nc1nc2c(ncn2[C@@H]2O[C@H](CO)[C@@H](O)[C@H]2O)c(=O)[nH]1 [guanosine]
(D) O=c1[nH]c(=O)c2ncn([C@@H]3O[C@H](CO)[C@@H](O)[C@H]3O)c2[nH]1 [xanthosine]
Q: Order each entry by recorded Relative activity, climbing from the minimum. State the ranking by listing the labels in the requested order.
Ans: A, D, B, C

----------
test system: nucleoside oxidase; assay: Substrate specificity: relative enzymatic activity on various substrates; type: biochemical, Pseudomonas putida B-0781; conditions: substrate each 1 mM concentration
OUTCOME_MEASURE: Relative activity (%)

>  <MOLECULE>
O=C[C@H](O)[C@H](O)[C@H](O)CO [D-ribose]

>  <UNIT_ABBREV>
%

>  <Relative activity>
0

$$$$

(1) O=c1[nH]c(=O)c2ncn([C@@H]3O[C@H](COP(=O)(O)O)[C@@H](O)[C@H]3O)c2[nH]1 [5'-XMP]
(2) NC(=O)c1ncn([C@@H]2O[C@H](CO)[C@@H](O)[C@H]2O)c1O [bredinine, reference compound]
Q: Kindly compare 1 with 2 and tell me which has the lower Relative activity figure. In your reply, give the label of the chosen option.
Ans: 1

----------
tested on: nucleoside oxidase; assay: Substrate specificity: relative enzymatic activity on various substrates; format: biochemical, Pseudomonas putida B-0781; conditions: substrate each 1 mM concentration
OUTCOME_MEASURE: Relative activity (%)

>  <RECORD_SMILES>
Nc1ccn([C@@H]2O[C@H](COP(=O)(O)O)[C@@H](O)[C@H]2O)c(=O)n1

>  <UNIT_ABBREV>
%

>  <ASSAY_RESULT>
0

$$$$
>  <RECORD_SMILES>
O=c1ccn([C@@H]2O[C@H](CO)[C@@H](O)[C@H]2O)c(=O)[nH]1

>  <UNIT_ABBREV>
%

>  <ASSAY_RESULT>
94.3

$$$$
>  <RECORD_SMILES>
O=c1cc[nH]c(=O)[nH]1

>  <UNIT_ABBREV>
%

>  <ASSAY_RESULT>
0

$$$$
>  <RECORD_SMILES>
Nc1ncnc2c1ncn2[C@@H]1O[C@H](COP(=O)(O)OP(=O)(O)O)[C@@H](O)[C@H]1O

>  <UNIT_ABBREV>
%

>  <ASSAY_RESULT>
0

$$$$
>  <RECORD_SMILES>
Nc1ncnc2c1ncn2[C@@H]1O[C@H](CO)[C@@H](O)[C@H]1O

>  <UNIT_ABBREV>
%

>  <ASSAY_RESULT>
100

$$$$

----------
system: nucleoside oxidase; assay: Effect of metal ions on enzyme activity (Table 2); assay type: biochemical, Pseudomonas putida B-0781; set-up: concentration or dose not given beside the values; conditions: control 100; 10 min
OUTCOME_MEASURE: Relative activity (%)

>  <COMPOUND>
[Ba+2]

>  <TARGET_OR_SYSTEM>
nucleoside oxidase

>  <Relative activity / %>
100

$$$$
>  <COMPOUND>
O=C(O)CN(CCN(CC(=O)O)CC(=O)O)CC(=O)O [EDTA, reference compound]

>  <TARGET_OR_SYSTEM>
nucleoside oxidase

>  <Relative activity / %>
98

$$$$
>  <COMPOUND>
[Mn+2]

>  <TARGET_OR_SYSTEM>
nucleoside oxidase

>  <Relative activity / %>
110

$$$$
>  <COMPOUND>
[Mg+2]

>  <TARGET_OR_SYSTEM>
nucleoside oxidase

>  <Relative activity / %>
104

$$$$
>  <COMPOUND>
O=C(O)c1cc[c]([Hg][Cl])cc1 [PCMB, reference compound]

>  <TARGET_OR_SYSTEM>
nucleoside oxidase

>  <Relative activity / %>
102

$$$$
>  <COMPOUND>
[Zn+2]

>  <TARGET_OR_SYSTEM>
nucleoside oxidase

>  <Relative activity / %>
94

$$$$
>  <COMPOUND>
[Co+2]

>  <TARGET_OR_SYSTEM>
nucleoside oxidase

>  <Relative activity / %>
104

$$$$
>  <COMPOUND>
[Ca+2]

>  <TARGET_OR_SYSTEM>
nucleoside oxidase

>  <Relative activity / %>
102

$$$$

----------
system: nucleoside oxidase; test: Substrate specificity: relative enzymatic activity on various substrates; format: biochemical, Pseudomonas putida B-0781; conditions: substrate each 1 mM concentration
OUTCOME_MEASURE: Relative activity (%)

(I) OC[C@H]1O[C@@H](n2cnc3c(O)ncnc32)[C@H](O)[C@@H]1O
(II) Nc1nc2c(ncn2[C@@H]2O[C@H](COP(=O)(O)O)[C@@H](O)[C@H]2O)c(=O)[nH]1
Q: Kindly compare I with II and tell me which has the lower Relative activity figure. In your reply, give the label of the chosen option.
Ans: II
(II: 0%, I: 91.4%)

(1) Nc1ncnc2c1ncn2[C@H]1C[C@H](O)[C@@H](CO)O1
(2) Cc1c[nH]c(=O)[nH]c1=O
Q: Select one: 1 or 2 . Criterion: greater recorded Relative activity. In your reply, give the label of the chosen option.
Ans: 1
(1: 99.1%, 2: 0%)

----------
system: nucleoside oxidase; assay: Substrate specificity: relative enzymatic activity on various substrates; format: biochemical, Pseudomonas putida B-0781; details: substrate each 1 mM concentration
OUTCOME_MEASURE: Relative activity (%)

>  <MOLECULE>
O=P(O)(O)O[C@H]1O[C@H](CO)[C@@H](O)[C@H]1O [α-D-ribose-1-phosphate]

>  <Relative activity [%]>
0

$$$$
>  <MOLECULE>
Nc1ncnc2nc[nH]c12

>  <Relative activity [%]>
0

$$$$
>  <MOLECULE>
O=c1ccn([C@@H]2O[C@H](COP(=O)(O)O)[C@@H](O)[C@H]2O)c(=O)[nH]1

>  <Relative activity [%]>
0

$$$$
>  <MOLECULE>
Cc1cn([C@H]2C[C@H](O)[C@@H](CO)O2)c(=O)[nH]c1=O

>  <Relative activity [%]>
94.3

$$$$
>  <MOLECULE>
Nc1ncnc2c1ncn2[C@@H]1O[C@H](COP(=O)(O)OP(=O)(O)OP(=O)(O)O)[C@@H](O)[C@H]1O

>  <Relative activity [%]>
0

$$$$
